read-out: Urokinase-type plasminogen activator receptor (uPAR), PLAUR (gene 5329); experiment: BSK_CASM3C_uPAR: BioMAP Diversity Plus: CASM3C Assay for Urokinase-type plasminogen activator receptor (uPAR) Biomarker Activity (AID 2283054); details: primary human coronary artery smooth muscle cells; actives raise or lower the signal;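 also: cell-surface uPAR protein level quantified by ELISA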
The source made the active and inactive calls. The calls were made as follows: active = hit-call score of the fitted dose curve at least 0.9, where 1 is the maximum; inactive = score below 0.9.
Allowed answers: True for active, False for inactive

Sample answers from the record:
Molecule: c1ccc(-c2ccccn2)nc1
Qualitative Label: False
//
Molecule: CCCCCCCCc1ccc(Nc2ccc(CCCCCCCC)cc2)cc1
Qualitative Label: False
//
Molecule: CN1C(=O)N(C)C(O)C1O (centres undefined)
Qualitative Label: False

Q: In this assay, the call recorded for "S=C(NC1CCCCC1)NC1CCCCC1" was what?
Ans: False

Q: How about this molecule: "CCOC(=O)c1ccccc1C(=C1C=C(Br)C(=O)C(Br)=C1)c1cc(Br)c(O)c(Br)c1"
Ans: False

Q: Also "O=C(Nc1ccccc1SSc1ccccc1NC(=O)c1ccccc1)c1ccccc1" ?
Ans: True

Q: Record: "N#[N+]c1ccc2c(S(=O)(=O)[O-])cccc2c1O"
Ans: False

Q: Could you do the same for C#CC1(O)CC[C@H]2[C@@H]3CCC4=CCCC[C@@H]4[C@H]3CC[C@@]21C (some centres undefined) , please?
Ans: True

Q: Next molecule up: "CCCCNc1ccc(NCCCC)c2c1C(=O)c1ccccc1C2=O"
Ans: False

Q: Thanks! And "c1ccc2c(c1)ccc1ncccc12" ?
Ans: False

Q: Queued: "O=c1c2ccccc2oc2ccccc12"
Ans: False

Q: Moving on to the next molecule: CC1OC1C1CCC2(C)OC2C1 (centres undefined)
Ans: False

Q: How about this molecule: "O=C(Cl)c1cc(C(=O)Cl)cc(C(=O)Cl)c1"
Ans: True

Q: # repeat for "C=CC=CC=CCCCCC"
Ans: False

Q: Repeat for the following molecule: "O=C(c1ccc(O)cc1)c1ccc(O)cc1O"
Ans: False

Q: Subsequent entry: "c1ccc2c(c1)ccc1cc3c(ccc4ccccc43)cc12"
Ans: False
